# PROTOCOL_NOTES: soluble fraction after stress (log2 fold change); higher = more stays soluble; pooled small domains, quantitative proteomics
# SETTINGS: stress: pH 4
Would you please tag the item Met when its soluble fraction (log2) is -0.03 or above, and Not met when it is below?

HMLERPLFTPEQYGRFRGKEARIRLSNPVEGRKTLTGSIVEATEERIVVFVEEEEREVTVPFQWIKSGNL :: Not met

Say whether "HMSYIGEEKAKSIAVSNVKGAGTNNVVKVEFDYDDGRAVYEVKVVYNAMEYEFEIDASNGKILSRDAESIY" shows soluble fraction (log2) of -0.03 or more. Met

What do you get for "HMTELPLTPRSKRILEMSALEARRLNHSYIGTEHLLMAIIRDGDGVAAKILESLGVNLPNFYTDTVRSIE" ? Not met

What do you get for "HMGDLVFDFVHGVHKAAEVEKELVMQALRFTHGNVSRAARLIGMQRSSLRYRIERYRLDAFVMEVAN" ? Not met

What do you get for "HMEPTLVVARDKDAKSPLVAKLMKELGVDAAPRVIVDDSVIGGAKLSHNHTEIDATYKTALINLYQAIT" ? Met

What do you get for "HMTNTDALINRAAKVVEEINPDKNTGRVSIDGDLWRAKSSSGELIEQNKQVIVISIESTIVTVKI" ? Not met

What do you get for "HMNSVSARRSAAITAISTGRIHSQEDLVQALKKAGYPVTQATASRDIEEIGAVRIRNQKGEMVYAIS" ? Met

What do you get for "HMINPASEKQLSFANSLIAKKEGGTETLNHYLHNRKVSSLEELDRKDVSEIINALKFAKEVT" ? Met

* * *

# PROTOCOL_NOTES: soluble fraction after stress (log2 fold change); higher = more stays soluble; pooled small domains, quantitative proteomics
# SETTINGS: stress: pH 4
PROPERTY_MEASURED: soluble fraction (log2)
One number for each entry.

Worked cases, answers included:
HMFMSDDDIRILVKEWLQSQNRKSYQLAEEIGIRPQTFYAQMSVRKISANTKKALSRIIPGL :: 0.0503
HMGGGVSSSLAGNVFKVLLPAGSVVEQGQAVIVLEAMKMETEVNAPKSGSVSSVFVNEGDTVEVGDLLFAI :: -0.162
HMSNMESLIGREATVIEMIPAEDVGRVKIDGDEWQAVLAREDDNEPRRDIQVGEKVIIVSYDSIILTVKTK :: -1.02
HMLSNLYAVLGVGRRATPDEITAAFDAWNARADAGEPIDDPLWERVRYAWDVLSSPSRRDLYDSLVDDATG :: -2.25
HMVEVPKVAGMSTAQGVSELEQKGFVVNRTESYDDTVPKGNIISQTPEGGTKVPSGSAVTIKISQGAE :: -0.0558

Lab note: each sequence below needs its soluble fraction (log2) filled in.
1. HMSKPVFQTHSVRSADSATVFDVLQTLLAGTPDARIAIDPKTNAIVAWARPETQEVIAKSIMEMEG
2. HMNAEGLIGREAVALTAVDAHGGRVRLGGEEWSARLSKENGGVSRLSVGDPVRVTDIDGAIAVVAP
3. HMVTDVDYSTFLSQVEEGKVESVTIEDGEILFKGKDENGEARWYITGEMNDPNLVERLKDKVPSFNAPA
4. HMAQPIPSGSDIREAREAAGMNLRDFARMVGGGAIGTWSHYETGKPIRVKSISPEVWQRVRDFILQHGK
5. HMLDEPPVSQTLTTYDREHMALYLRLLDSARDGADWREAVQILFGLDPTRDPLRSRHVHDTHLARARWM
6. HMEKKDTYTVKNGDSLWGIARTELGDGGRFREIYTLNADTIEAEAKKRGRSSSSEGHWIYPGSVLRLP

[-0.418, 0.0456, -0.128, 0.036, -0.452, -0.325]

* * *

# PROTOCOL_NOTES: soluble fraction after stress (log2 fold change); higher = more stays soluble; pooled small domains, quantitative proteomics
# SETTINGS: stress: pH 4
PROPERTY_MEASURED: soluble fraction (log2)
Give bare numbers.

HMDTERLYAYAWQTHLKQFGLNISEEEIRQFVGVDDRIVHSFYAKTVPLDDFENTMFSLGEIIQQSL :: -2.08
HMNQDQDLSRIKGIGPEMVDRLHAQGVETLEQIAAMQMEQLKKLDQQISGNGKAVREQWAEQAKQLLTT :: -0.331
HMFTRFTVAQDGWTIGGFTAKEMAVSTAKQHAVDTGKPVTVVAHVAGGGSREAIFNSDGTNDKIWN :: 0.157

Please find the next sequence below.
Which soluble fraction (log2) is reported for this sequence? "HMDKKTMFNEALAKLVSYATAHDNLITMEDVKSFFNGLIDDDSQYKLIYDYLSINKIEIKGFT" -0.704

* * *

# PROTOCOL_NOTES: soluble fraction after stress (log2 fold change); higher = more stays soluble; pooled small domains, quantitative proteomics
# SETTINGS: stress: pH 4
PROPERTY_MEASURED: soluble fraction (log2)
Give bare numbers.

Lab note: each sequence below needs its soluble fraction (log2) filled in.
1. HMESIEAGTFELDNKTSIDISEDEANLLNKMFEELTETNSKDMYGVMVADEAGFNEILEFAKENL
2. HMLAMHVVESVGGAEQFTKLQNFAKTQNADYQKMWNDTMNSGNVLAIKTMLSGIQSDMIAVQ

1. -0.551
2. -0.466

Lab note: each sequence below needs its soluble fraction (log2) filled in.
1. HMGHTVHAVPEAADRQRLDVFVGNLHPTISRAYIQKLSKEDQILVNGKPEKAGFKLRTGHSVSVPDMSE
2. HMGDAVSRAYFALADDLLKGELTETVSEVLIRTRYELTSAQLQAVLHRIAQEGWAHKKPGYGWEFSAMLT
3. HMDMPLIGTAIRGWGIISPAQQETLIKMSILTVEDLAAINDEGIKRIGMGGLDLKNKAKAWLLQLK
4. HMKQDFVYNGFVEAKGDDLMVQINYKGETYYVTEGESFGGFTVKSANKDKVVLSGQGGAETVLEFR

1. 0.177
2. -1.39
3. -0.00985
4. -0.536

Lab note: each sequence below needs its soluble fraction (log2) filled in.
1. HMVSKTEAMAVFIADKLQEGMVPANEILELYKGMQLSDRTIRNAKKQLGIVSIRKDGQWYWSL
2. HMKQLNKRQNDILSFAEKQGYVSVENLAKLFSVTQQTIRRDINYLSDNELLVRTHGGAYYSS

-0.997
-0.0112

* * *

# PROTOCOL_NOTES: soluble fraction after stress (log2 fold change); higher = more stays soluble; pooled small domains, quantitative proteomics
# SETTINGS: stress: pH 4
Recorded soluble fraction (log2) determines the group label, using group 1 = under -0.4, group 2 = from -0.4 up to 0.01, group 3 = 0.01 and over

HMVEGTVKWFNDEKGFGFIEQEGGKDVFVHFSAINGSGRRTLHEGQRVTMEVTQGQKGPQAENVNP :: group 1
HMEKRLDYTFGLNKEQLLYLTKSIKDGDFYNVSFIDGTEKKLNRVGSTKEVHKYVNFLMTNDGIVKK :: group 3
HMAVPTHVEFPVVGLQRSGITSLEQAIATVPGVSKAVVNVSDNRIFVDYDPTRSKVSDLLEVVRGAGFTP :: group 2
HMEEGKVKRMAMDMVDAFYDKVSAMVDDNNDLGRSVVDAWDDEEENPPEYMLDDETRAILVNAGKIEPE :: group 3
HMRLPNGYGSITKLSGKRRKPFMVRITTGYDNEGKQLMSVLGYYATRTEALAVLAEYNKNPYNPI :: group 3

Kindly identify the class of "HMDVQPHIYLRKLDQFWPADLHSLILYTLDGRRLWSADSGNIPALPHRASSLVILEATWDNGQRTRRKQFL" . group 2

What do you get for "HMTVLIDEQSSDGLLKITVTANTAVKSITIADELLEDKEQLEDYLILVLNKAIARANQVNQTELDAVAK" ? group 3

What do you get for "HMNKEKLLEMFESMSIIIVQSLEEKEQTEDRIETELFNEAKTPRYSTLTKQDIQSVIRNILITVGV" ? group 1

* * *

# PROTOCOL_NOTES: soluble fraction after stress (log2 fold change); higher = more stays soluble; pooled small domains, quantitative proteomics
# SETTINGS: stress: pH 4
Recorded soluble fraction (log2) determines the group label, using bottom range: < -0.3; center range: ≥ -0.3 and < 0.005; top range: ≥ 0.005

Use the examples below as a reference point.
HMNAKVVAPIPGTVLSIDIKVGDVIKIGDRLLVLEAMKMENNIASEKSGTVTAVHVKVGQQVLQNELMIEL :: bottom range
HMVSVPDIGEKLPDFTGTPKRLLTPLLNKNDVNIIIKGDGWVVSQKPPAGTPVTKGMTIEFTL :: center range
HMSGGIVRLAVKPWGEVFVDGASRGITPPLKQLTLDAGVHRIEIRNPAGPSWTKDVDVVAGQPTTVSHRF :: top range
HMTNVLSEQESKLLERMNKAGLNAEITVKKAAQILNLSESAARNVLNRLVGKGYLTVDTSRLPFLFQR :: top range
HMDARSTHIAAIHVLKSKLQLQDSDYRALLLTLTGQTSSKDLSEHQRRAVRNHMQQLAERMGVVQ :: top range

Kindly identify the class of "HMSNEITVPDLSGMSLEELETILSDRSLSYEIIDSIYNSTAKKGTVSSQDPLPDAKVKSGRTIYITVVSKL" . bottom range

What do you get for "HMKIELTDQQKSLVVDEWNKGEANPPSLLQLIRLAYPDQPHLDGRSKEGKAVKAFLATRDINPLA" ? center range

What do you get for "HMAVSVPDVMGLTYEEAYNKITAEGLLVNRLESYTGLVEKGRVISQLPVGGEPAAKGSTVNVNVSL" ? center range

What do you get for "HMSIYYQIYESLKKDLSNNLYKPGEKLPSENVLSKRFGVNRHTIRRSLQLLKNEGILFSKRGSGIIVHD" ? top range

What do you get for "HMFELDELDLVILKNLANGLSKKQIRVKLKKMDLRPNSESAIDKRVSKLFDEFGAKNSTELVAKLIREGL" ? center range

What do you get for "HMSVHSAELKKLKAHLLGIIGRELETQPSTENREEMVRQILHQSYESLRLNLPMQLKEELFNEILAEVL" ? bottom range

What do you get for "HMDLEELSNKMNNVFESLSSDLRDIIIMSDIEGLSYEEISHKINIPIGTVRSRLHRARDLMVRVIKEN" ? bottom range

What do you get for "HMGQLSDREALTVLAREALVELPRAAGDYRNGRTAALQSLVGRVMRKTAGRGNPALLQEIFRSLL" ? center range
